The reported measurements were obtained from ChEMBL document CHEMBL1201862.

# System: OVCAR-3
# Procedure Text: NCI tumour cell line growth inhibition, 48 h
The source made the active and inactive calls. Rule as the data show it: active = GI50 up to about 1.1 µM and inactive = higher.
Outcome codes: T = active, F = inactive

{"Compound": "O=C(O)CCNCCCCNCCC(=O)O", "Assay Target": "OVCAR-3", "Answer Label": "F"}
{"Compound": "CC1CC2OC(=O)C(C)C2CC2(C)C(OC3OC(CO)C(O)C(O)C3O)OCCC12 (centres undefined)", "Assay Target": "OVCAR-3", "Answer Label": "F"}
{"Compound": "CC(C)(C)NC(=O)/C(=C\\Sc1ccccc1)c1ccc2c(c1)OCO2", "Assay Target": "OVCAR-3", "Answer Label": "F"}
{"Compound": "CNc1ccc(C)cc1S(=O)(=O)c1ccccc1[N+](=O)[O-]", "Assay Target": "OVCAR-3", "Answer Label": "F"}
{"Compound": "COc1ccc(C=C(c2ccc(OCc3ccccc3)cc2)c2ccc(OCc3ccccc3)cc2)cc1", "Assay Target": "OVCAR-3", "Answer Label": "F"}
{"Compound": "COc1cccc(C(C#N)NC23CC4CC(CC(C4)C2)C3)c1 (centres undefined)", "Assay Target": "OVCAR-3", "Answer Label": "F"}
{"Compound": "COc1ccc(/C=N/c2ccc(-c3nc4ccccc4s3)cc2)cc1OC", "Assay Target": "OVCAR-3", "Answer Label": "F"}
{"Compound": "N#Cc1c(-c2nc3ccccc3s2)c(=O)oc2cc(O)ccc12", "Assay Target": "OVCAR-3", "Answer Label": "F"}
{"Compound": "O=C(Nc1cc(Cl)c(Cl)cc1Cl)C(=O)C(C(=O)c1ccccc1)C1OC(=O)c2ccccc21 (centres undefined)", "Assay Target": "OVCAR-3", "Answer Label": "F"}
{"Compound": "O=C1N[C@@H]2O[C@H](CNC(=O)c3cc(Br)c[nH]3)C[C@]2(O)N1.O=C1N[C@H]2O[C@H](CNC(=O)c3cc(Br)c[nH]3)C[C@@]2(O)N1", "Assay Target": "OVCAR-3", "Answer Label": "F"}
{"Compound": "C=C1C[C@@H](O)[C@@H](Br)C(C)(C)[C@]12CCC(C)(Br)C(Cl)C2 (some centres undefined)", "Assay Target": "OVCAR-3", "Answer Label": "F"}
{"Compound": "N#Cc1c2c(c(N=P(c3ccccc3)(c3ccccc3)c3ccccc3)n3c1nc1ccccc13)CCCC2", "Assay Target": "OVCAR-3", "Answer Label": "F"}
{"Compound": "O=C(O)CCSC(CC1(c2ccc(Cl)cc2)NC(=O)CCS1)c1ccccc1 (centres undefined)", "Assay Target": "OVCAR-3", "Answer Label": "F"}
{"Compound": "O=[N+]([O-])/C(Cl)=C(\\NCCN/C(C(Cl)=C(Cl)Cl)=C(/Cl)[N+](=O)[O-])C(Cl)=C(Cl)Cl", "Assay Target": "OVCAR-3", "Answer Label": "F"}
{"Compound": "Cc1c(C(=O)C/C(=N/NC(=O)c2ccccc2)C(=O)Nc2ccc(Cl)cc2)[n+]([O-])c2ccccc2[n+]1[O-]", "Assay Target": "OVCAR-3", "Answer Label": "F"}
{"Compound": "CC(O)C1OC(O)C2OC(C)(C)OC12 (centres undefined)", "Assay Target": "OVCAR-3", "Answer Label": "F"}
{"Compound": "COc1cc2c(cc1O)C1CC(CC3CCCCN31)OC(=O)/C=C\\c1ccc(O)c-2c1 (centres undefined)", "Assay Target": "OVCAR-3", "Answer Label": "F"}
{"Compound": "COc1cc2cc(C(=O)N3CC(CCl)c4ccc([N+](=O)[O-])cc43)[nH]c2c(OC)c1OC (centres undefined)", "Assay Target": "OVCAR-3", "Answer Label": "F"}
{"Compound": "NC(CC1=CS(=O)(=O)c2ccc(Cl)cc21)C(=O)O (centres undefined)", "Assay Target": "OVCAR-3", "Answer Label": "F"}
{"Compound": "Oc1cc(Cl)cc2cc(Cl)cnc12", "Assay Target": "OVCAR-3", "Answer Label": "T"}
{"Compound": "O=C(CCl)Nc1ccc(-c2nc3ccccc3s2)cc1", "Assay Target": "OVCAR-3", "Answer Label": "F"}
{"Compound": "c1ccc(Nc2nnc(-c3nsc4ccccc34)o2)cc1", "Assay Target": "OVCAR-3", "Answer Label": "F"}
{"Compound": "COc1ccc(C(Cc2ccccc2)C2NC(=S)NC2=O)cc1 (centres undefined)", "Assay Target": "OVCAR-3", "Answer Label": "F"}
{"Compound": "CC1=Nn2c(nnc2-c2ccc(N)cc2)NC(C)(C)C1", "Assay Target": "OVCAR-3", "Answer Label": "F"}
{"Compound": "CCOC(=O)CCNC(=O)c1cc(C)cc2c1Oc1c(cc(C)cc1C(=O)NCCC(=O)OCC)S2", "Assay Target": "OVCAR-3", "Answer Label": "F"}
{"Compound": "CC1(C)[C@H]2Cc3cc(-c4cc5c(cn4)[C@@H]4C[C@H]([C@@H]5[C@@H]5c6cc(-c7cc8c(cn7)[C@@H]7C[C@H](C8)C7(C)C)ncc6[C@@H]6C[C@H]5C6(C)C)C4(C)C)ncc3[C@@H]1C2", "Assay Target": "OVCAR-3", "Answer Label": "F"}
{"Compound": "c1ccc2cc(CNCCOCCOCCNCc3ccc4ccccc4c3)ccc2c1", "Assay Target": "OVCAR-3", "Answer Label": "F"}
{"Compound": "Cc1cc(S(=O)(=O)Nc2nc3ccccc3[nH]2)c(S)cc1Cl", "Assay Target": "OVCAR-3", "Answer Label": "F"}
{"Compound": "C=CCc1cc(OC)c2c(c1)C(O)CC(c1ccc(OC)c(OC)c1)O2 (centres undefined)", "Assay Target": "OVCAR-3", "Answer Label": "F"}
{"Compound": "CC(=O)OCC1OC(OC2CC3C(C)(C)C(O)CC[C@]3(C)C3CCC45CC4(CC[C@H]5C(C)CC(O)C4OC4(C)C)[C@]23C)C(O)C(O)C1O (some centres undefined)", "Assay Target": "OVCAR-3", "Answer Label": "F"}
{"Compound": "CCC(=O)Nc1ccc(/N=C/c2cccc(Oc3ccccc3)c2)cc1", "Assay Target": "OVCAR-3", "Answer Label": "F"}
{"Compound": "O=C(O)CCSc1ncnc2[nH]cnc12", "Assay Target": "OVCAR-3", "Answer Label": "F"}
{"Compound": "CC(C)(C)c1cc(OCc2nnc3sc(-c4ccc(Cl)cc4)nn23)c(Cl)cc1OCc1nnc2sc(-c3ccc(Cl)cc3)nn12", "Assay Target": "OVCAR-3", "Answer Label": "F"}
{"Compound": "Oc1ccccc1CNCc1ccccc1O", "Assay Target": "OVCAR-3", "Answer Label": "F"}

* * *

# Tested on: MDA-MB-435
# Procedure Text: NCI tumour cell line growth inhibition, 48 h
The source made the active and inactive calls. Cut-off read from the data, not from the text of the source: active = GI50 up to about 1.1 µM and inactive = higher.
Outcome codes: Yes (active), No (inactive)

{"Molecule": "n1onc2c1NC1Nc3nonc3NC1N2 (stereo unspecified)", "Answer Label": "No"}
{"Molecule": "O=c1c2cc(S(=O)(=O)Nc3c(Cl)cccc3Cl)ccc2ncn1NS(=O)(=O)c1ccc2ccccc2c1", "Answer Label": "No"}
{"Molecule": "O=C(O)c1cncc(C(=O)O)c1", "Answer Label": "No"}
{"Molecule": "CCCCc1ccc(Nc2ncc3ncn(COCCO)c3n2)cc1", "Answer Label": "No"}
{"Molecule": "CCOC1OC(CO[Si](C)(C)C(C)(C)C)C(O)CC1n1ccc(=O)[nH]c1=O (stereo unspecified)", "Answer Label": "No"}
{"Molecule": "Cc1cc(C)c(NC(=O)/C=C/c2ccccc2)c(C)c1", "Answer Label": "No"}
{"Molecule": "Cc1nc(-c2ccccc2)cn2c1nc1ccccc12", "Answer Label": "No"}
{"Molecule": "Cc1nc2ccc(/N=N/N(C)C)cc2[nH]1", "Answer Label": "No"}
{"Molecule": "CCC1=CC(OCc2ccccc2)C(CCN(Cc2ccccc2)C(=O)OCc2ccccc2)C1 (stereo unspecified)", "Answer Label": "No"}
{"Molecule": "O=C(CCl)Nc1ccc(-c2nc3ccccc3s2)cc1", "Answer Label": "No"}
{"Molecule": "COC(=O)C(CSSC[C@H](N/C(C)=C/C(C)=O)C(=O)OC)N/C(C)=C/C(C)=O (stereo partly specified)", "Answer Label": "No"}
{"Molecule": "O=C(Nc1ccccc1)O/N=C(/CBr)c1ccccc1", "Answer Label": "No"}
{"Molecule": "CCN(CC)Cc1ccc(Nc2c3ccccc3nc3ccccc23)cc1", "Answer Label": "No"}
{"Molecule": "O=S1(=O)c2ccccc2Oc2ccc(C(/C=N/O)=N/O)cc21", "Answer Label": "No"}
{"Molecule": "Oc1ccccc1CNCc1ccccc1O", "Answer Label": "No"}
{"Molecule": "COc1ccc(/C=N/c2ccc(-c3nc4ccccc4s3)cc2)cc1OC", "Answer Label": "No"}
{"Molecule": "Cn1c2ccccc2c(=NNc2ccc(S(=O)(=O)N=C(N)N)cc2)c2ccccc21", "Answer Label": "No"}
{"Molecule": "CC1CC2OC(=O)C(C)C2CC2(C)C(OC3OC(CO)C(O)C(O)C3O)OCCC12 (stereo unspecified)", "Answer Label": "No"}
{"Molecule": "O=c1c(C(c2ccc(/C=C/c3ccccc3)cc2)c2c(O)oc3cc(O)ccc3c2=O)c(O)oc2cc(O)ccc12", "Answer Label": "No"}
{"Molecule": "C=CC1(c2ccc3ccccc3c2)OCC(CC)O1 (stereo unspecified)", "Answer Label": "No"}
{"Molecule": "CC(NNC(=O)c1ccncc1)c1ccc(F)cc1 (stereo unspecified)", "Answer Label": "No"}
{"Molecule": "CC(C)=CCC[C@@H](C)C1=C(O)C(=O)C(C)=C(Nc2ccccc2Br)C1=O", "Answer Label": "No"}
{"Molecule": "Nc1n[n+]([O-])c2cnccc2[n+]1[O-]", "Answer Label": "No"}
{"Molecule": "c1ccc(C2=Nc3cccc4cccc(c34)N2)cc1", "Answer Label": "No"}
{"Molecule": "CCOC(=O)c1ccc(N2C(=S)N(C(=O)c3ccccc3)C(=N/c3ccccc3)/C2=N\\c2ccccc2)cc1", "Answer Label": "No"}
{"Molecule": "CC(=O)O[C@H]1CC[C@@]2(C)C(=CC[C@@H]3[C@@H]2CC[C@]2(C)c4c(cc(C#N)c(=N)n4C(C)=O)C[C@@H]32)C1", "Answer Label": "No"}
{"Molecule": "COC(=O)C1CCC(=S)N1C(=O)OCc1ccccc1 (stereo unspecified)", "Answer Label": "No"}
{"Molecule": "CCOP(=O)(Nc1ccc(-c2ccc(N)cc2)cc1)OCC", "Answer Label": "No"}
{"Molecule": "COc1cc(C2SCC(=O)N2c2ccc(Cl)cc2)cc(OC)c1OC (stereo unspecified)", "Answer Label": "Yes"}
{"Molecule": "Cc1ccc(NC(=O)NC(=O)c2ccc([N+](=O)[O-])cc2[N+](=O)[O-])cc1Oc1ncc(Cl)cn1", "Answer Label": "Yes"}
{"Molecule": "N#Cc1c(-c2nc3ccccc3s2)c(=O)oc2cc(O)ccc12", "Answer Label": "No"}
{"Molecule": "CC(C)(C)[Si](C)(C)OCC1C=CC(n2cnc3c(N)ncnc32)O1 (stereo unspecified)", "Answer Label": "No"}
{"Molecule": "COc1cc(C2S/C(=C/c3ccccc3)C(=O)N2c2ccccn2)cc(OC)c1OC (stereo unspecified)", "Answer Label": "No"}
{"Molecule": "CC(=O)Nc1sc(Br)cc1S(=O)(=O)c1ccc(Cl)cc1", "Answer Label": "No"}
{"Molecule": "N#Cc1c(N2CCN(c3ccc([N+](=O)[O-])cc3)CC2)[n+]([O-])c2ccccc2[n+]1[O-]", "Answer Label": "No"}
{"Molecule": "CN1C2CCC1CN(CCOC(c1ccc(F)cc1)c1ccc(F)cc1)C2", "Answer Label": "No"}
